target: human MC4R receptor (human, UniProt P32245 1-332); assay: cell-based or functional assay
Sequence (P32245 whole entry): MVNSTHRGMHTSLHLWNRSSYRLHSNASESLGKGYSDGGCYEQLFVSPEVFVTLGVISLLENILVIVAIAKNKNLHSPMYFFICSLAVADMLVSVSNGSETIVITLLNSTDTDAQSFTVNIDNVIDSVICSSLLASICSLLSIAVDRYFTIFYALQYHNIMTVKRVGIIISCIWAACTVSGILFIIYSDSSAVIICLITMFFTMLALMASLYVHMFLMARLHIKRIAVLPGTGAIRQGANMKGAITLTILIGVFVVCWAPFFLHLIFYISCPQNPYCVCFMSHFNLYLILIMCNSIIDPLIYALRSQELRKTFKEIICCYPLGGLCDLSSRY
Positions of bridges follow the written chain, without caps; N, C: chain ends. Non-standard residues stand in square brackets, D forms with d. Cit = NC(=O)NCCC[C@H](N)C(=O)O; Nle = CCCC[C@H](N)C(=O)O; Aib = CC(C)(N)C(=O)O

binder | % max activation / %
Ac-RC[Aib][Cit][dF]RWC-NH2 (disulfide 2-8) [CTX-1289] | 93
{CH2CO}-GR[dF]RFC-NH2 (thioether N-6; SMILES N=C(N)NCCC[C@@H]1NC(=O)CNC(=O)CSC[C@@H](C(N)=O)NC(=O)[C@H](Cc2ccccc2)NC(=O)[C@H](CCCNC(=N)N)NC(=O)[C@@H](Cc2ccccc2)NC1=O) [CTX-1654] | 81
Ac-RC[Aib]R[dF]RWC-NH2 (disulfide 2-8) [CTX-1292] | 90
Ac-R[Nle]C[Cit][dF]RFC-NH2 (disulfide 3-8; SMILES CCCC[C@H](NC(=O)[C@H](CCCNC(=N)N)NC(C)=O)C(=O)N[C@H]1CSSC[C@@H](C(N)=O)NC(=O)[C@H](Cc2ccccc2)NC(=O)[C@H](CCCNC(=N)N)NC(=O)[C@@H](Cc2ccccc2)NC(=O)[C@H](CCCNC(N)=O)NC1=O) [CTX-1626] | 83

Where do these numbers come from? They come from patent US20240391954A1.
